Listed next: entries and their corresponding IC50.
- System Name: Dual specificity tyrosine-phosphorylation-regulated kinase 1B (Homo sapiens, UniProt Q9Y463)
- Sequence (Q9Y463 whole entry): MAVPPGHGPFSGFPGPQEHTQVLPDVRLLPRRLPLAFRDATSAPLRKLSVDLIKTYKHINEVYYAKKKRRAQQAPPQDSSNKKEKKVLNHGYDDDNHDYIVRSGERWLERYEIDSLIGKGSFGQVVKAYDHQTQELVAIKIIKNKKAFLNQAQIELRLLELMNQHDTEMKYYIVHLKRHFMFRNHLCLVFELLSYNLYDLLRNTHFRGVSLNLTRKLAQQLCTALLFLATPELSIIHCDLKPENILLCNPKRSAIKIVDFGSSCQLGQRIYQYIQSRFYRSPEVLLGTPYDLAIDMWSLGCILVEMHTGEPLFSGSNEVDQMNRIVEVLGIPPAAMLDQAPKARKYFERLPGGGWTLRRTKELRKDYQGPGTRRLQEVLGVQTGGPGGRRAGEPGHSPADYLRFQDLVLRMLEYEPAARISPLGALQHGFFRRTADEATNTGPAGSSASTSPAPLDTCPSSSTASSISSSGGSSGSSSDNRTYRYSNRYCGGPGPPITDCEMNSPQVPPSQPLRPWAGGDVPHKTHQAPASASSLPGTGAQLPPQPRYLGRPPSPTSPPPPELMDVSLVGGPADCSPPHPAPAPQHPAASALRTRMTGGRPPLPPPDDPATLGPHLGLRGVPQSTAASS
- Method Description: Inhibition of recombinant full length human Dyrk1B expressed in Baculovirus expression system using KKISGRLSPIMTEQ as substrate in presence of ATP
Property Name: IC50 (nM)

{"columns": ["Chemical Structure", "Readout Units", "Endpoint Result"],
 "data": [
  ["O=C(Nc1cncc(-c2cc(-c3cccnc3)cs2)c1)c1c(F)cc(F)cc1F", "nM", 298],
  ["Nc1cncc(-c2csc(-c3cccnc3)c2)c1", "nM", 130],
  ["O=C(Cc1ccc(F)cc1)Nc1cncc(-c2cc(-c3cccnc3)cs2)c1", "nM", 383],
  ["O=C(Cc1ccccc1)Nc1cncc(-c2cc(-c3cccnc3)cs2)c1", "nM", 326],
  ["Nc1cncc(-c2cc(-c3cccnc3)cs2)c1", "nM", 154],
  ["Nc1ccc(-c2cc(-c3cccnc3)cs2)cn1", "nM", 251]
]}
